B1: CPEB3 Ribozyme (parent)
chain: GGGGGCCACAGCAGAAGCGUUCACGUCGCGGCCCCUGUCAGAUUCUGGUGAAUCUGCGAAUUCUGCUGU

- Variants of: B1
- experimentalDetails: self-cleavage, relative activity (ratio to wild type); higher = more cleavage; co-transcriptional
readoutType: self-cleavage

>>> value("G30C C57U")
0.244

Data point: U38C U49A ; self-cleavage = 0.955

Reported self-cleavage for C7A U61A was 0.169

Entry G28C G50U — recorded self-cleavage = 0.143

Sure, the documented self-cleavage for U49G U53G is 0.585
